What IC50 was measured for each of the following?
# tgt: CDK2 (human) (UniProt P24941)
# run_description: Cell-Based Assay
# assay_conditions: a549
Numbers only, in µM.

chemical_smiles=Cc1cc(Nc2nccc(-c3c(C)[nH]c(C#N)c3C)n2)ccc1Cl data_value=4.37
chemical_smiles=Cc1ccc(Nc2nccc(-c3c(C)[nH]c(C#N)c3C)n2)cc1I data_value=3.6
chemical_smiles=Cc1[nH]c(C#N)c(C)c1-c1ccnc(Nc2ccc(N(C)C)cc2)n1 data_value=1.41

Items follow; give IC50 for each.
1. Cc1[nH]c([N+](=O)[O-])c(C)c1-c1ccnc(Nc2ccc(N(C)C)cc2)n1
2. CCN(CC)Cc1[nH]c(C)c(-c2ccnc(Nc3ccc(F)cc3)n2)c1C

[3.05, 0.97]
